# assay.method.text: NCI Yeast Anticancer Drug Screen. Data for the mlh1 rad18 strain (AID 175)
# run.parameters: S. cerevisiae mlh1 rad18 strain growth inhibition; at 50.0 µM; active compounds read high
About 79,000 compounds went through this panel and 15% of them were active in at least one assay; those are over-represented in the sample as a whole.
measured.metric: growth inhibition (%)
Answers are plain numbers, in %.

Examples from the recorded data:
compound	growth inhibition [%]
CCCCc1ccc(-n2c(C)c(COC(=O)NC)c(COC(=O)NC)c2C)cc1	91.2
CCN(CC)CCN(C)CCc1ccc(Br)cc1	68.3
Nc1nc2ccc(NCc3ccc(C(=O)NC(CCC(=O)O)C(=O)O)cc3)cc2c(=O)[nH]1 (configuration not stated)	59.4

Provide each entry's growth inhibition from the list below.
1. CCCCNC1CCC2(SCCS2)c2[nH]c3ccccc3c21 (configuration not stated)
2. COC(=O)/C=C(/CC(=O)OC)C(=O)OC

## Output
1. 84.7
2. 10.8

Give measured growth inhibition for every item shown.
1. c1ccc(Cc2cc(-c3ccccc3)n[nH]2)cc1
2. COc1ccc2c(c1)n([O-])c1ccccc1[n+]2=O
3. NC(N)=NS(=O)(=O)c1ccc(Nc2c3ccccc3nc3c(C(=O)NCCO)cccc23)cc1
4. CC(C)C(C)/C=C\C(C)C1CCC2C3=CC=C4CC(O)CCC4(C)C3CCC21C (configuration not stated)
5. O=C(CSC(=S)N1CCCCC1)Nc1nc2c(s1)CCCC2
6. COc1ccc(N=CN(C)C)c(C)c1
7. Clc1ccc(NCNC2Nc3ccccc3N2)cc1Cl

## Output
[96.8, 6.8, 46, 86.5, 78.6, 48.4, 29.8]

###

# assay.method.text: NCI Yeast Anticancer Drug Screen. Data for the mec2-1 strain (AID 157)
# run.parameters: S. cerevisiae mec2-1 strain, at 50.0 µM (retest, dose inferred, filed as 5.0), active compounds read high
This is part of a sample that, as a whole, favours compounds with a hit. Of some 79,000 tested, about 15% had one in any assay.
Grouping rule (growth inhibition): lower segment: < 20%; middle segment: ≥ 20% and < 90%; upper segment: ≥ 90%

## Input Which bin, given its growth inhibition, does S=c1sc2c(s1)SCCS2 occupy?
## Output middle segment

## Input Class label required: O=C1NC(=O)c2ccc([N+](=O)[O-])c3cccc1c23
## Output middle segment

## Input Assign a bin to O=C1/C(=C/c2ccccc2)CCCC1CN1CCCCC1 (stereo not drawn)
## Output middle segment

## Input Dear colleague, I would appreciate it if you could identify the bin for Cc1cccc(C(C)(C)C)c1NC(=O)C(C#N)C1=C(Cl)C(=O)c2ccccc2C1=O (stereo not drawn) and reply at your convenience.
## Output upper segment

## Input Note: place this compound into its band. Item: Cc1ccc(Cl)cc1NC(=O)OCCN(C)C(=O)Nc1cc(Cl)ccc1C
## Output upper segment

## Input Class (by measured growth inhibition) for Cc1ccc2c3ccc4c(c3n(C)c2c1)C(=O)C=CC4=O
## Output middle segment

## Input Determine which band this compound sits in: CCc1nc2ccc(NCCN(C)C)c3c(=O)c4ccccc4n1c23
## Output middle segment

## Input Form: Item = CC(=O)SC(C[N+](=O)[O-])c1ccccc1 (stereo not drawn) ; Class = ?
## Output upper segment

## Input Assign a bin to COc1ccc(C(=O)Oc2ccccc2Br)cc1
## Output lower segment

## Input Which of the defined bands does the recorded growth inhibition of CCCC/C=C/C(C)(C(=O)OCC)C(=O)OCC sit within?
## Output lower segment

Values from PubChem BioAssay (NCI)
